Experiment: Chlorinated DNAPL dissolution in control sample without cosolvent-surfactant (equilibrium solubility in water in presence of the DNAPL)
Conditions: 25 °C, thermodynamic from solid
property label: solubility at 48 h (µg/mL)
Write it as a number; the unit µg/mL goes unstated.

Find the recorded solubility at 48 h belonging to ClC(Cl)=C(Cl)Cl [Tetrachloroethene (PCE), Tetrachloroethene] and report it. 140
